study_target: UniProtKB P17931
Sequence (P17931 whole entry): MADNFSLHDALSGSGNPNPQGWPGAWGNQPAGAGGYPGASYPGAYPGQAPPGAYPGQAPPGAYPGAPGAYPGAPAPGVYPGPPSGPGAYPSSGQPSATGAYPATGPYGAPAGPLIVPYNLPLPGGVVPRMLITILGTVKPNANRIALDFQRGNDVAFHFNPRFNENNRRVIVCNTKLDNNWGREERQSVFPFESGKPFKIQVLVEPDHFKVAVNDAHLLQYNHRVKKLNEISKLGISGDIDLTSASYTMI
test_method_notes: Competitive binding assay: biotinylated hGal-3 binding to microplate-adsorbed asialofetuin (ASF)
experimental_context: Activity on hGal-3; mean values of several measurements; mixture of diastereomers measured where not separated
Experimental: The inhibitory activity of compounds is determined in competitive binding assays. This spectrophotometric assay measures the binding of biotinylated human Gal-3 (hGal-3) or human Gal-1 (hGal-1), respectively, to a microplate-adsorbed glycoprotein, asialofetuin (ASF) (Proc Natl Acad Sci USA. 2013 Mar 26;110(13):5052-7.). […] The calculated IC50 values may fluctuate depending on the daily assay performance. […]
Hi there, I'd appreciate the recorded IC50 for every entry that follows.
Only the number, expressed in nM, is required.

With UniProtKB P17931 as the test system, provide measured IC50 for this compound: CO[C@@H]1[C@@H](n2cc(-c3ccc(Br)c(F)c3F)nn2)[C@@H](O)[C@@H](CO)O[C@H]1C(=O)N(c1cc(Br)cc(C#N)c1)[C@@H]1COC[C@H]1O [Example 42]
37

With UniProtKB P17931 as the test system, provide measured IC50 for this compound: CO[C@@H]1[C@@H](n2cc(-c3cc(F)c(F)c(F)c3)nn2)[C@@H](O)[C@@H](CO)O[C@H]1C(=O)N(c1cc(C)cc(Br)c1)[C@@H]1CN(C(C)=O)C[C@H]1O [Example 79]
76

With UniProtKB P17931 as the test system, provide measured IC50 for this compound: CO[C@@H]1[C@@H](n2cc(-c3cc(F)c(F)c(F)c3)nn2)[C@@H](O)[C@@H](CO)O[C@H]1C(=O)N(c1cc(Cl)cc(C#N)c1)[C@H]1CCOC[C@@H]1O [Example 100]
16

With UniProtKB P17931 as the test system, provide measured IC50 for this compound: CO[C@@H]1[C@@H](n2cc(-c3ccc(Cl)c(Cl)c3)nn2)[C@@H](O)[C@@H](CO)O[C@H]1C(=O)N(c1cc(Br)cc(Br)c1)[C@H]1COC[C@@H]1O [Example 27]
89

With UniProtKB P17931 as the test system, provide measured IC50 for this compound: CO[C@@H]1[C@@H](n2cc(-c3ccc(Br)c(F)c3F)nn2)[C@@H](O)[C@@H](CO)O[C@H]1C(=O)N(c1cc(Cl)cc(Cl)c1)[C@H]1CN(C(C)=O)C[C@@H]1O [Example 73]
23

With UniProtKB P17931 as the test system, provide measured IC50 for this compound: CO[C@@H]1[C@@H](n2cc(-c3cc(F)c(F)c(F)c3)nn2)[C@@H](O)[C@@H](CO)O[C@H]1C(=O)N(c1cc(C)cc(Br)c1)[C@H]1CN(S(C)(=O)=O)C[C@@H]1O [Example 98]
29

With UniProtKB P17931 as the test system, provide measured IC50 for this compound: CO[C@@H]1[C@@H](n2cc(-c3cc(F)c(F)c(F)c3)nn2)[C@@H](O)[C@@H](CO)O[C@H]1C(=O)N(c1cc(Cl)cc(C#N)c1)[C@H]1COC[C@@H]1O [Example 5]
69

With UniProtKB P17931 as the test system, provide measured IC50 for this compound: CO[C@@H]1[C@@H](n2cc(-c3cc(F)c(F)c(F)c3)nn2)[C@@H](O)[C@@H](CO)O[C@H]1C(=O)N(c1cc(Cl)cc(Cl)c1)[C@H]1CN(C(C)=O)C[C@@H]1O [Example 71]
36

With UniProtKB P17931 as the test system, provide measured IC50 for this compound: CO[C@@H]1[C@@H](n2cc(-c3cc(F)c(F)c(F)c3)nn2)[C@@H](O)[C@@H](CO)O[C@H]1C(=O)N(c1cc(C)cc(Br)c1)[C@@H]1CN(C=O)C[C@H]1O [Example 94]
86

With UniProtKB P17931 as the test system, provide measured IC50 for this compound: CO[C@@H]1[C@@H](n2cc(-c3ccc(Cl)c(Cl)c3)nn2)[C@@H](O)[C@@H](CO)O[C@H]1C(=O)N(c1cc(C)cc(Br)c1)[C@@H]1COC[C@H]1O [Example 58]
175
